Target: HA of virus A/Panama/2000/1999 (H3N2) (influenza A virus (H3N2))
Test: cell-based or functional assay
OUTCOME_MEASURE: Neutralization titer SK50

Any idea what its Neutralization titer SK50 is? The binder is CR8052 (antibody, V domains shown) VH: DIQLTQSPSSLSASVGDRVTITCRASQGINTYLNWYQQKPGKAPKVLIFAASTLQSGVPSRFSGSGSGTEFTLNINNLQPEDFATYYCQQSYSTAIT VL: EVQLVESGGGVVQPGRSLRLSCAASGFSFTTYGMHWVRQAPGKGLEWVAFIWYDGSNKHYQDSVKGRFTISKDNSNNMLYLQMDSLRVADTAVYYCVRDGGYSTWEWYFDL
21.9 µg/mL

# Neutralization titer SK50 lookup, item CR8049 (antibody, V domains shown) VH: QVTLKESGPVLVKPKETLTLTCTVSGFSLSNTRMGVSWIRQPPGKALEWLAHIFSNDETSYRTSLKRRLTISQDISKSQVVLSMTNVDPADTATYFCARIGSGYESSAYSTWLDP VL: QVQLQQWGAGLLKPSETLSLTCAVYGGSFTDHYWSWIRQSPGKGLEWIGEVVHSGDTNYTPSLRNRVSISVDSSKNQFSLRLGSVTAADTAVYYCARGRNVAVVGAIQRHYDY
> 40 µg/mL

Here is another binder to look at.
Would you mind telling me what Neutralization titer SK50 value was observed for CR8015 (antibody, V domains shown) VH: QVQLQESGGDLVQPGGSLRLSCSASEFSFSSYWMSWVRQAPGKGLEWVANMKQDGSEKYYVDSVKGRFTISRDNAKNSLYLQMNSLRGEDTAVYYCARGSCDDSWTGCHDAFDI VL: VLTQPPSVSVAPGQTAKITCGGDNIGRKSVHWYQQKPGLAPVLVVNDNSDRPSGIPARFSGSNSGNTATLTISRVEAGDEADYYCHVWGSSRDHYV ?
> 40 µg/mL
